System: Androgen receptor (Homo sapiens)
Measurement Description: qHTS assay to identify small molecule antagonists of the androgen receptor (AR) signaling pathway (AID 743035); note: potency is the fitted concentration of half-maximal effect
Assay Setup: HEK293 AR-UAS-bla, R1881-stimulated, beta-lactamase FRET, 16 h; series mostly up to 58.5 µM
Records with an inconclusive call do not appear. Calls of active or inactive are those of the source. Calls come from the whole dose curve; as a rule, active = well fitted inhibition curve with a large enough effect in the signal ratio in the repeat runs (not every such curve was filed as active); inconclusive = weak or mixed curves, or effect the other way; inactive = no such curve, though single readings can be large or run the other way; the % refers to the signal ratio.

| Molecule | Potency |
| --- | --- |
| O=C1c2ccccc2C(=O)C1c1ccc(F)cc1 | inactive |
| NC[C@@H]1CC[C@@H](N)[C@@H](O[C@H]2[C@H](O)[C@@H](O[C@H]3O[C@H](CO)[C@@H](O)[C@H](N)[C@H]3O)[C@H](N)C[C@@H]2N)O1 | inactive |
| CN(C)CCc1c[nH]c2ccc(Cn3cncn3)cc12 | inactive |
| CCN(CC)CCn1c(=O)c(Cc2ccc(OC)cc2)nc2ccccc21 | inactive |
| C=CCc1cc(S(=O)(=O)c2ccc(O)c(CC=C)c2)ccc1O | 38.9 µM (active) |
| O=C(O)[C@@H]1C[C@H](CP(=O)(O)O)CCN1 | inactive |
| NC(N)=NCC1COC2(CCCCC2)O1 (centres undefined) | inactive |
| CCOC(=O)[C@H](CCc1ccccc1)N[C@@H](C)C(=O)N1[C@H](C(=O)O)C[C@H]2CCCC[C@@H]21 | inactive |
| O=C1C2CC3CC1CC(O)(C3)C2 | inactive |
| Oc1ccc(Cl)c2c1CCC2 | inactive |
| O=P(O)(O)CP(=O)(O)O | inactive |
| CCCCCCCCCCCCCCCC(=O)OC[C@H](COP(=O)([O-])OCC[N+](C)(C)C)OC(=O)CCCCCCCCCCCCCCC | inactive |
| CC1(C)CCC(NC(=O)[C@@H](N)CCC(=O)O)CC1 | inactive |
| C[N+](C)(C)CCOP(=O)(O)OP(=O)([O-])OC[C@H]1O[C@@H](n2ccc(N)nc2=O)[C@H](O)[C@@H]1O | inactive |

---

Measurement Description: qHTS RealTime-Glo MT Cell Viability Assay in HEK293 cells - 8 hour (AID 1224887); note: top concentration of the series differs between compounds; % is set by controls: 0 for no effect and ±100 for the full control effect; nearly all actives have a fitted effect of over 50% in size
Assay Setup: RealTime-Glo luminescence; series mostly up to 76.8 µM
Results filed as inconclusive are left out. The source made the active and inactive calls. Calls follow the shape of the dose curve; as a rule, active = well fitted cell-killing curve with a large enough effect in the repeat runs; inconclusive = weak or mixed curves, or effect the other way; inactive = flat fitted curve, though single readings scatter.
Attribute: activity change, negative = cytotoxicity

| Compound | activity change, negative = cytotoxicity |
| --- | --- |
| COc1cc2ncnc(Nc3cccc(Cl)c3)c2cc1OC | -3.64% [at 15.8 µM] (inactive) |
| C=CC(=O)OCCOC1C2CCC1C1CC=CC12 (centres undefined) | -0.849% [at 15.8 µM] (inactive) |
| O=C(O)CN(CCCN(CC(=O)O)CC(=O)O)CC(=O)O | -4.97% [at 15.8 µM] (inactive) |
| CCCCNc1ccc(NCCCC)c2c1C(=O)c1ccccc1C2=O | 3.79% [at 15.8 µM] (inactive) |

---

Measurement Description: qHTS assay for small molecule agonists of the p53 signaling pathway - cell viability (AID 651633); note: nearly all actives have a fitted effect of over 30% in size
Assay Setup: p53RE-bla HCT-116 viability, ATP luminescence, 16 h; series mostly up to 83.3 µM
Records with an inconclusive call do not appear. The source made the active and inactive calls. Calls come from the whole dose curve. Positions of bridges follow the written chain, without caps; N, C: chain ends. Non-standard residues stand in square brackets, D forms with d. Residues, ends and D or L forms follow the SMILES beside them. *: point of attachment. Dab(CH2SO3H) = N[C@@H](CCNCS(=O)(=O)O)C(=O)O; X3 = CC[C@@H](C)CCCCC(=O)*; Dab = NCC[C@H](N)C(=O)O
Classes used: active, inactive

| Compound | Group |
| --- | --- |
| CC(C)C[C@H](NC(=O)[C@@H](COC(C)(C)C)NC(=O)[C@H](Cc1ccc(O)cc1)NC(=O)[C@H](CO)NC(=O)[C@H](Cc1c[nH]c2ccccc12)NC(=O)[C@H](Cc1cnc[nH]1)NC(=O)[C@@H]1CCC(=O)N1)C(=O)N[C@@H](CCCN=C(N)N)C(=O)N1CCC[C@H]1C(=O)NNC(N)=O | inactive |
| O=C(Nc1ccccc1)c1cc(Cl)ccc1O | active |
| CC(=O)OCC(=O)[C@@]1(O)CC[C@H]2[C@@H]3C[C@H](C)C4=CC(=O)C=C[C@]4(C)[C@H]3[C@@H](O)C[C@@]21C | inactive |
| CCOC(=O)COc1ccc2c(=O)cc(-c3ccccc3)oc2c1 | inactive |
| CN=C(N)NCCC[C@H](N)C(=O)O | inactive |
| CC/C=C\C/C=C\C/C=C\C/C=C\C/C=C\C/C=C\CCC(=O)O | inactive |
| CO/N=C(\C(=O)N[C@@H]1C(=O)N2C(C(=O)[O-])=C(C[n+]3cccc4c3CCC4)CS[C@H]12)c1csc(N)n1 | inactive |
| CC[C@@H](C)CCCCC(=O)N[C@@H](CCNCS(=O)(=O)O)C(=O)N[C@H](C(=O)N[C@@H](CCNCS(=O)(=O)O)C(=O)N[C@H]1CCNC(=O)[C@H]([C@@H](C)O)NC(=O)[C@H](CCNCS(=O)(=O)O)NC(=O)[C@H](CCNCS(=O)(=O)O)NC(=O)[C@H](CC(C)C)NC(=O)[C@@H](CC(C)C)NC(=O)[C@H](CCNCS(=O)(=O)O)NC1=O)[C@@H](C)O (X3-[Dab(CH2SO3H)]T[Dab(CH2SO3H)][Dab][Dab(CH2SO3H)][dL]L[Dab(CH2SO3H)][Dab(CH2SO3H)]T; lactam 4-C) | inactive |
| CNC(=O)C[C@@H](N)C(=O)N[C@@H](C(=O)N[C@@H]1C(=O)N2[C@@H]1SC(C)(C)[C@@H]2C(=O)O)c1ccc(O)cc1 | inactive |
| CC/C(=C(/CC)c1ccc(OP(=O)(O)O)cc1)c1ccc(OP(=O)(O)O)cc1 | inactive |
| CC1(C)S[C@@H]2[C@H](N3C(=O)C(c4ccccc4)NC3(C)C)C(=O)N2[C@H]1C(=O)O (some centres undefined) | inactive |
| COc1cc2c(c(OC)c1OC)-c1c(cc3c(c1OC)OCO3)C[C@@H](C)[C@](C)(O)C2 | inactive |
| CCC(O)c1ccccc1 (centres undefined) | inactive |
| N#Cc1c(N(CC(=O)O)CC(=O)O)sc(C(=O)O)c1CC(=O)O | inactive |
